# target.or.system: human SGLT2 (Homo sapiens (Human))
# Sequence (P31639 whole entry): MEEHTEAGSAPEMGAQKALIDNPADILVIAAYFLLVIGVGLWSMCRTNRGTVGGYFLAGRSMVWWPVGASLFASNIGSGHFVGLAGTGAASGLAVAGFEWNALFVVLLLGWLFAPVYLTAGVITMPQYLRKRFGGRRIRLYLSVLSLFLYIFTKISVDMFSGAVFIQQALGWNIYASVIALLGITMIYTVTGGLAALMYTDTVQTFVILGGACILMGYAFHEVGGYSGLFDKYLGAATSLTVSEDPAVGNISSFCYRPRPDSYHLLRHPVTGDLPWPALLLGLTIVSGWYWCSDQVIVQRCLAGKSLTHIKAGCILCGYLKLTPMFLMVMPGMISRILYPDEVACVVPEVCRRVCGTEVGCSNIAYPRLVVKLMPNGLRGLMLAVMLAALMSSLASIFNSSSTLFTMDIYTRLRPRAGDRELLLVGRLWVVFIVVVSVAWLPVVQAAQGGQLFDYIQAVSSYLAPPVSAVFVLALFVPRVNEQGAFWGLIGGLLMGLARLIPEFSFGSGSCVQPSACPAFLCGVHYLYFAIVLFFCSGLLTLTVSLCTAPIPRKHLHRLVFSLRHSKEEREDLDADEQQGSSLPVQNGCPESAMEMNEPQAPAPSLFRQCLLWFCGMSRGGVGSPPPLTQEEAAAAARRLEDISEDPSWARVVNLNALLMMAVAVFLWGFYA
# method: Inhibitory effects on human SGLT2 activities (14C-AMG uptake, sodium-dependent glucose transport assay)
# Format: cell-based
# condition.notes: CHO cells stably expressing hSGLT2, 37° C., 2 h, single determinations
Reported IC50 values for the following molecules.

[
  {
    "molecule": "OC[C@H]1O[C@@H](c2cc(Cc3ccc4c(c3)OCCO4)c(Cl)c3c2CCC3)[C@H](O)[C@@H](O)[C@@H]1O",
    "IC50 (nM)": 0.616
  },
  {
    "molecule": "CCOc1ccc(Cc2cc([C@@H]3O[C@H](CO)[C@@H](O)[C@H](O)[C@H]3O)c3c(c2C)OCC3)cc1",
    "IC50 (nM)": 1.28
  },
  {
    "molecule": "COc1cc(Cl)c(Cc2ccc3c(c2)OCCO3)cc1[C@@H]1O[C@H](SC)[C@@H](O)[C@H](O)[C@H]1O",
    "IC50 (nM)": 0.628
  },
  {
    "molecule": "CC1Cc2c([C@@H]3O[C@H](CO)[C@@H](O)[C@H](O)[C@H]3O)cc(Cc3ccc(C(C)C)cc3)c(Cl)c2O1 (stereo partly shown)",
    "IC50 (nM)": 1.44
  },
  {
    "molecule": "CC(C)c1ccc(Cc2cc([C@@H]3O[C@H](CO)[C@@H](O)[C@H](O)[C@H]3O)c3c(c2Cl)OCC3)cc1",
    "IC50 (nM)": 0.794
  },
  {
    "molecule": "OC[C@H]1O[C@@H](c2ccc(Cl)c(Cc3ccc(N4CCOCC4)cc3)c2)[C@H](O)[C@@H](O)[C@@H]1O",
    "IC50 (nM)": 9.08
  },
  {
    "molecule": "CS[C@H]1O[C@@H](c2cc(Cc3ccc4c(c3)OCCO4)c(Cl)cc2O)[C@H](O)[C@@H](O)[C@@H]1O",
    "IC50 (nM)": 0.454
  }
]

====

# target.or.system: human SGLT2 (Homo sapiens (Human))
# method: Inhibitory effects on human SGLT2 activities (14C-AMG uptake, sodium-dependent glucose transport assay)
# Type: cell-based
# condition.notes: CHO cells stably expressing hSGLT2, 37° C., 2 h, single determinations
# Text: Test 1: Cloning and Cell Line Construction for Human SGLT2 Human SGLT2 (hSGLT2) gene was amplified by PCR from cDNA-Human Adult Normal Tissue Kidney (Invitrogen). The hSGLT2 sequence was cloned into pcDNA3.1(+) for mammalian expression and stably transfected into chinese hamster ovary (CHO) cells. SGLT2-expressing clones were selected based on resistance to G418 antibiotic (Geneticin) and activity in the ^14C-α-methyl-D-glucopyranoside (^14C-AMG) uptake assay. […]

[
  {
    "chemical.string": "CCOc1ccc(Cc2cc([C@@H]3O[C@H](SC)[C@@H](O)[C@H](O)[C@H]3O)c(OC)cc2Cl)cc1",
    "target.or.system": "human SGLT2 (Homo sapiens (Human))",
    "IC50": "0.783 nM"
  },
  {
    "chemical.string": "OC[C@H]1O[C@@H](c2cc(Cc3ccc4c(c3)OCCO4)c(C(F)F)c3c2CCC3)[C@H](O)[C@@H](O)[C@@H]1O",
    "target.or.system": "human SGLT2 (Homo sapiens (Human))",
    "IC50": "1.26 nM"
  },
  {
    "chemical.string": "COc1ccc(Cc2cc([C@@H]3O[C@H](CO)[C@@H](O)[C@H](O)[C@H]3O)c3c(c2Cl)CCO3)cc1",
    "target.or.system": "human SGLT2 (Homo sapiens (Human))",
    "IC50": "1.72 nM"
  },
  {
    "chemical.string": "C=CCOc1cc(Cl)c(Cc2ccc(OC)cc2)cc1[C@@H]1O[C@H](OC)[C@@H](O)[C@H](O)[C@H]1O",
    "target.or.system": "human SGLT2 (Homo sapiens (Human))",
    "IC50": "7.06 nM"
  },
  {
    "chemical.string": "CCOc1ccc(Cc2cc([C@@H]3O[C@H](CO)[C@@H](O)[C@H](O)[C@H]3O)cc(-c3ccccc3Cl)c2C)cc1",
    "target.or.system": "human SGLT2 (Homo sapiens (Human))",
    "IC50": "15.4 nM"
  },
  {
    "chemical.string": "CCn1ncc2cc(Cc3cc([C@@H]4O[C@H](CO)[C@@H](O)[C@H](O)[C@H]4O)ccc3Cl)ccc21",
    "target.or.system": "human SGLT2 (Homo sapiens (Human))",
    "IC50": "1.58 nM"
  },
  {
    "chemical.string": "CCOc1ccc(Cc2cc([C@@H]3O[C@H](CO)[C@@H](O)[C@H](O)[C@H]3O)c3c(c2Cl)C(C)(C)CO3)cc1",
    "target.or.system": "human SGLT2 (Homo sapiens (Human))",
    "IC50": "4.16 nM"
  }
]
